Form field: viability at 28.5 h, 10 µM (one value per entry).
# Assay Name: in vitro
# Condition Set: human, hela cells, % viability

{"columns": ["Molecule", "viability at 28.5 h, 10 µM"],
 "data": [
  ["CN(c1ncc(-c2cc3ccccc3o2)cc1C(=O)NCC(F)(F)F)S(C)(=O)=O", "114%"],
  ["NS(=O)(=O)c1ccc(NC(=S)NC(=O)c2ccc(Cl)cc2Cl)cc1", "94%"],
  ["CSCCC(C(=O)O)N1C(=O)C(=Cc2ccc(-c3cc(Cl)cc(Cl)c3)o2)SC1=S (stereo not shown)", "87.3%"],
  ["Nc1ccn(C2OC(CO)C(O)C2O)c(=O)n1 (stereo not shown)", "108%"],
  ["O=C(NCc1c(F)cccc1F)C1(c2ccccc2)CCCC1", "91.7%"],
  ["Cc1ncsc1CCOc1nc2ccccc2nc1C(F)(F)F", "95.2%"],
  ["CCCNC(=O)c1ccc(NC(=O)NC(CC)c2ccnn2C)c(C)c1 (stereo not shown)", "104%"],
  ["CC(C)Nc1cncc(OC2CCN(C)C2)n1 (stereo not shown)", "90.8%"],
  ["O=c1c2cccnc2ncn1CC(O)COc1ccc(-c2ccccc2)cc1 (stereo not shown)", "99.1%"],
  ["COc1cc2c(cc1NC(=O)C(C)Oc1ccccc1)oc1ccccc12 (stereo not shown)", "91.3%"],
  ["COc1ccc(C(=O)N[C@H]2C[C@H]3C(=O)Nc4ccccc4C(=O)N3C2)cc1", "84.7%"],
  ["Cc1nc2ccccc2c(=O)n1CC(=O)NCc1ccccc1", "91.9%"],
  ["Cc1ccc(C(=O)N2CCN(c3ccc(NC(=O)c4ccc(-c5cccc([N+](=O)[O-])c5)o4)cc3)CC2)cc1", "107%"],
  ["O=C(C(OCC(F)(F)F)c1ccccc1)N1CCN(c2nccs2)CC1 (stereo not shown)", "91.9%"],
  ["CC(Cn1cccn1)NS(=O)(=O)c1ccc(N2CCCC2=O)cc1 (stereo not shown)", "83.7%"],
  ["Cc1ccccc1C(c1cnccn1)N(C)C(=O)C1CCN(S(=O)(=O)C(C)C)CC1 (stereo not shown)", "101%"],
  ["CC1(C(=O)NS(=O)(=O)c2cccc(-c3nnco3)c2)CC1", "106%"],
  ["COc1ccc(-c2nc(NC(=O)C3CC(=O)N(C)C3c3cccnc3)cnc2-c2cccc(C)c2)cc1 (stereo not shown)", "101%"],
  ["COC(=O)CCCCCSc1nc2ccc(O)c([N+](=O)[O-])c2s1", "106%"],
  ["O=C(CSc1nnc(-c2ccc(Cl)cc2Cl)o1)c1cc2ccccc2oc1=O", "88.7%"],
  ["CCC(CO)Nc1cncc(-c2ccc3c(c2)OCO3)n1 (stereo not shown)", "98.4%"],
  ["CN(C)c1cccc(-c2nc(-c3ccc(C#N)cc3)cnc2N)c1", "91.5%"],
  ["COc1ccc(-c2cc(=O)oc3cc(OC(C)C(=O)O)ccc23)cc1 (stereo not shown)", "105%"],
  ["COc1ccc(C2CC(c3ccc4ccccc4c3)=NN2C(=O)COc2ccccc2C(=O)O)cc1 (stereo not shown)", "102%"],
  ["Cc1cc(C(=O)N2CCCc3ccccc32)n[nH]1", "92%"]
]}

====

We begin with a simple list: items and their reported viability at 28.5 h, 10 µM.
# Assay Name: in vitro
# Condition Set: human, hela cells, % viability
Measured Quantity: viability at 28.5 h, 10 µM

{"columns": ["Compound", "Value Reported"],
 "data": [
  ["O=C(CCCc1nc(-c2ccccc2Cl)no1)Nc1cccnc1 [CBK269122]", "91.6%"],
  ["Cc1cc(C)n(CCCC(=O)N2CCC3(CC2)CC(=O)N(C)C3)n1 [CBK306905]", "90.5%"],
  ["O=S(=O)(/C=C/c1ccncc1)NCc1ccc2c(c1)OCO2 [CBK018566]", "91.3%"],
  ["COc1cc(-c2cnc3[nH]c(=O)n(CCc4ccncc4)c3n2)cc(OC)c1OC [CBK064620]", "96.9%"],
  ["Cc1csc2c(N3CCSCC3)ncnc12 [CBK009169]", "100%"],
  ["CN1CCN(c2nc(-c3ccccc3CO)cn3ccnc23)CC1 [CBK066347]", "87.1%"],
  ["COc1ccc(CC(=O)N2CCCC2c2cccc(Cc3ccc(F)cc3)n2)cc1 (stereo not drawn) [CBK286233]", "89.1%"],
  ["CC(C)C(NC(=O)CN1CSCC1=O)c1ccc(C(C)(C)C)cc1 (stereo not drawn) [CBK297899]", "88.6%"],
  ["Cc1ccc(-c2nnc(CN3C(=O)C4(CC(=O)N(Cc5ccccc5)C4=O)c4ccccc43)o2)cc1 (stereo not drawn) [CBK075749]", "103%"]
]}
